# Test system: NCI-H322M
# PROTOCOL: NCI-60 anticancer screen (SRB; single dose and five doses)
# COND: Homo sapiens
METRIC: GI50 (µM)
# output: bare number, implied unit µM

1. COc1cc(/C=C/C(=O)c2sc(=S)[nH]c2C)cc(OC)c1OC	4.57
2. Cc1[nH]c(=S)sc1C(=O)/C=C/c1cccc([N+](=O)[O-])c1	8.71
3. Cc1[nH]c(=S)sc1C(=O)/C=C/c1ccc(Br)cc1	3.76
4. Cc1[nH]c(=S)sc1C(=O)/C=C/c1cccc(Cl)c1	6.03
5. Cc1[nH]c(=S)sc1C(=O)/C=C/c1ccc([N+](=O)[O-])cc1	11

Asked: GI50 lookup needed for "Cc1[nH]c(=S)sc1C(=O)/C=C/c1ccc(F)cc1" , thanks.
Given back: 4.1

Asked: Lookup "Cc1[nH]c(=S)sc1C(=O)/C=C/c1ccc(Cl)cc1"
Given back: 10.2
